Test: PK (pharmacokinetic) study in rat, cassette dosing
Assay type: in vivo
Settings: male, Wistar, plasma, oral cassette 2 mg/kg
Experimental Endpoint: half-life (min)

Input: Given CCN1CCC(n2cc(-c3cnc(N)c(O[C@H](C)c4c(Cl)ccc(F)c4Cl)c3)cn2)CC1 , state its recorded half-life.
Output: 179

Input: For [2H]C([2H])([2H])C([2H])([2H])N1CCC(n2cc(-c3cnc(N)c(O[C@H](C)c4c(Cl)ccc(F)c4Cl)c3)cn2)CC1 , what is its reported half-life?
Output: 186

----------
Target: UniProt Q9UM73
Assay: ALK kinase assay
Type: biochemical
Conditions: ALK kinase assay; read-out: ALK (IC50 grading)
pIC50: −log10 of the molar value.
Experimental Endpoint: pIC50

Input: For UniProt Q9UM73, provide pIC50 of CCN1CCC(n2cc(-c3cnc(N)c(O[C@@H](C)c4c(Cl)ccc(F)c4Cl)c3)cn2)CC1 please.
Output: 6.00 to 7.00

Input: Query the reported pIC50 for UniProt Q9UM73; item: C[C@@H](Oc1cc(-c2cnn(C3CCN(C)CC3)c2)cnc1N)c1c(Cl)ccc(F)c1Cl
Output: ≥ 7.00

Input: API: value(readout= pIC50, system= UniProt Q9UM73, query= CCNc1ncc(-c2cnn(C3CCNCC3)c2)cc1OC(C)c1c(Cl)ccc(F)c1Cl (stereo not shown) )
Output: ≥ 6.00

Input: Param readout = pIC50; param system = UniProt Q9UM73; param query = CCCNc1ncc(-c2cnn(C3CCNCC3)c2)cc1OC(C)c1c(Cl)ccc(F)c1Cl (stereo not shown) ; response: value
Output: ≥ 6.00

Input: Identify the measured pIC50 of CCN1CCC(n2cc(-c3cnc(NC(C)=O)c(OC(C)c4c(Cl)ccc(F)c4Cl)c3)cn2)CC1 (stereo not shown) for UniProt Q9UM73.
Output: 6.00 to 7.00

Input: Lab request: please report pIC50 under test system UniProt Q9UM73 for [2H]C([2H])([2H])N1CCC(n2cc(-c3cnc(N)c(O[C@@H](C)c4c(Cl)ccc(F)c4Cl)c3)cn2)CC1
Output: 6.00 to 7.00

# next molecule below
Input: Form: Entry = [2H]C([2H])([2H])N1CCC(n2cc(-c3cnc(N)c(O[C@H](C)c4c(Cl)ccc(F)c4Cl)c3)cn2)CC1 | System = UniProt Q9UM73 | pIC50 = ____
Output: ≥ 7.00

----------
Biological target: ALK kinase (Homo sapiens, UniProt Q9UM73)
Sequence (Q9UM73 19-1620): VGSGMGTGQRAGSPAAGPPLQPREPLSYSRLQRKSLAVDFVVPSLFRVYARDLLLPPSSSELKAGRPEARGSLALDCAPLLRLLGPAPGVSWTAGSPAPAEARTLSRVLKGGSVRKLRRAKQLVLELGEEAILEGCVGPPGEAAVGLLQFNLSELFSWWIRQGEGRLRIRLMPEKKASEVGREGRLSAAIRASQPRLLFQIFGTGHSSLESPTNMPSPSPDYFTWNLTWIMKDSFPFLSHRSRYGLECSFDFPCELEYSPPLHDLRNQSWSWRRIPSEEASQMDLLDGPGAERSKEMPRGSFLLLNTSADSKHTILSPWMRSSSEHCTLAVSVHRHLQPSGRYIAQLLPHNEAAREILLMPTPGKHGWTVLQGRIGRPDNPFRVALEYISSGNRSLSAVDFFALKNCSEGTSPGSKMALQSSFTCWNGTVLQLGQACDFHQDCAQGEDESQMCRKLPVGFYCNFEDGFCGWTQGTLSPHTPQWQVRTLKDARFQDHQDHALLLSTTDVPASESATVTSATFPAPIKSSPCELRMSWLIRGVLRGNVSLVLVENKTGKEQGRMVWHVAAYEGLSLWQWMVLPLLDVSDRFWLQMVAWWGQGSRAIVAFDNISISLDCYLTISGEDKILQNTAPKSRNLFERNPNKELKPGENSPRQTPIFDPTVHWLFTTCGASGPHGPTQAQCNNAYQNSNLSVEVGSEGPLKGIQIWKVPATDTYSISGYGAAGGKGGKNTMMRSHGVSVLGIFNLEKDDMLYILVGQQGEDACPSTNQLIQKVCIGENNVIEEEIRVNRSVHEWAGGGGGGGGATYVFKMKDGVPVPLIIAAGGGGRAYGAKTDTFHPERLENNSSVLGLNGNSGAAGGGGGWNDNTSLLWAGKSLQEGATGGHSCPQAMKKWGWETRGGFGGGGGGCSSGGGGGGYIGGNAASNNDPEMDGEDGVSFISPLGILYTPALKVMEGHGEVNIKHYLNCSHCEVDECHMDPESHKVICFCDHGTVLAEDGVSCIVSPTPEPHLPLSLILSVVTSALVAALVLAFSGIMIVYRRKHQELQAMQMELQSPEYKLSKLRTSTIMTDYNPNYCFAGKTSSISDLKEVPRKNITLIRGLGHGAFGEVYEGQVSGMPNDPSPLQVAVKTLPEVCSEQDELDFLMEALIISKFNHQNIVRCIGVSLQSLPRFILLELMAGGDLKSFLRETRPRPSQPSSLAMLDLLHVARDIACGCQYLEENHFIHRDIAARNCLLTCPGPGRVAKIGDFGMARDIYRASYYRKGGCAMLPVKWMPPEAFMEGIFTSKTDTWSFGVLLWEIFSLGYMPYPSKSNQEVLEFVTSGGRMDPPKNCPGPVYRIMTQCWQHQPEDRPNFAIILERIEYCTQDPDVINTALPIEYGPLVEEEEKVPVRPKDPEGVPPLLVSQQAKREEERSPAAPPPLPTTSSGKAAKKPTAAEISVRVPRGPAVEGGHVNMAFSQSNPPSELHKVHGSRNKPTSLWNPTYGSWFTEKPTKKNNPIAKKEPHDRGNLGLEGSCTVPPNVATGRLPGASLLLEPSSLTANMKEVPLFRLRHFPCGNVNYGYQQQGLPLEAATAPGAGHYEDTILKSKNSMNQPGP
Assay: ALK kinase assay
Assay type: biochemical
Conditions: ALK kinase assay; read-out: ALK (IC50 grading)
Experimental: An in vitro assay which determines the ability of a test compound to inhibit ALK kinase. a) kinase-tagged T7 phage strains were prepared in an E. coli host derived from the BL21 strain. […] The kinase concentration in the eluates was measured by qPCR. […] c) An alternative method to conduct the kinase assay with the following condition and procedure: The assay was performed using Kinase-Glo Plus luminescence kinase assay kit (Promega). […]
pIC50: −log10 of the molar value.
Experimental Endpoint: pIC50

Example results:
Input: What value of pIC50 has been recorded for this entry: [2H]C([2H])([2H])C([2H])([2H])N1CCC(n2cc(-c3cnc(N)c(O[C@@H](C)c4c(Cl)ccc(F)c4Cl)c3)cn2)CC1
Output: 6.00 to 7.00

Input: Need pIC50, item CCN1CCC(n2cc(-c3cnc(N)c(O[C@H](C)c4c(Cl)ccc(F)c4Cl)c3)cn2)CC1
Output: ≥ 7.00

Input: Entry C[C@H](Oc1cc(-c2cnn(C3CCN(C)CC3)c2)cnc1N)c1c(Cl)ccc(F)c1Cl : reported pIC50 = ?
Output: 6.00 to 7.00

***
Input: Quick one: pIC50 for CC(=O)Nc1ncc(-c2cnn(C3CCNCC3)c2)cc1O[C@H](C)c1c(Cl)ccc(F)c1Cl ?
Output: ≥ 7.00
